# study_target: Glycogen synthase kinase-3 alpha (Homo sapiens)
# assay_notes: concentration-response blocking of human GSK3A – biochemical, luminescence, cell-free homogeneous, retest, dose response (AID 463203)
# recorded_conditions: GSK-3 alpha enzyme, ADP-Glo luminescence, 60 min
Active and inactive are the calls of the source.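 How the source made its calls: active means more than half of replicate measurements showing over 20% loss of kinase signal relative to plate controls; inconclusive means some but at most half of replicates over 20% loss; inactive means no replicate over 20% signal loss.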
Respond with a class label; see y = active, n = inactive

### Prompt Hi, do you know how CCn1ncc([N+](=O)[O-])c1C(=O)N1CCCC1 came out in this test?
### Response n

### Prompt // return assay outcome for Cc1nnc(NC(=O)c2cccc(S(=O)(=O)N3CC(c4ccccc4)CC3=O)c2)s1 (stereo not drawn)
### Response n

### Prompt For COc1cccc(NC(=O)[C@@H]2CCCN2S(=O)(=O)c2cccc3cccnc23)c1 , which call appears in the assay record?
### Response y

### Prompt I'd appreciate the recorded outcome for Oc1ccc2cccnc2c1 from this test.
### Response n

### Prompt Can you look up the reported call for O=C(O)c1ccc(Cl)c(NC(=O)C2CCCN2S(=O)(=O)c2cccc3nsnc23)c1 (stereo not drawn) for me?
### Response y

### Prompt # outcome recorded in this test, key = CC(=O)c1cc(-c2ccc(F)cc2)n(CCC(=O)NC(C)(C)C)c1C
### Response n

### Prompt Per the records of this test, what outcome belongs to N#Cc1c(-c2ccncc2)c2c([nH]c1=O)-c1ccccc1OC2 ?
### Response n

### Prompt Record lookup: outcome of this test for S=c1sc2ccccc2n1CCc1ccncc1 ?
### Response y

### Prompt Kindly provide the recorded test outcome for the following compound: O=C1CNC(=S)N1CCCn1ccnc1
### Response n

### Prompt Status in this test for CC(C)c1c(C(=O)N/N=C/c2cccnc2)nnn1-c1nonc1N ?
### Response n

### Prompt Given CC(C)NC(=O)Nc1ccc(Br)cc1Cl , state the outcome it received in this test.
### Response n

### Prompt Would you mind telling me which call this test gave Cc1ccc2nc(-c3ccncc3)[nH]c2c1 ?
### Response n

### Prompt Hi team, can someone confirm the assay call for CCOC(=O)N1CCc2c(sc3nc4n(c(=O)c23)N=C(C)CS4)C1 ?
### Response n

### Prompt Assay outcome for c1ccc2c(c1)c1ccccc1n1c(-c3ccc4c(c3)OCO4)nnc21 : what was it?
### Response n

### Prompt So what was the verdict on CCCOc1cc2c(C#N)c(N3CCCC3)nc(N)c2c(N)n1 in this test?
### Response n

### Prompt Status in this test for O=C(CSc1ccc2nnc(-c3ccccc3)n2n1)N1CCCc2ccccc21 ?
### Response n

### Prompt Recorded call for O=C(Cn1c(NCCO)nc2ccccc21)NCC1CCCO1 (stereo not drawn) ?
### Response n

### Prompt Please share the test call associated with Cc1cc(C)c(NC(=O)C2CCCN2CCOC(=O)c2cccc([N+](=O)[O-])c2)c(C)c1 (stereo not drawn) .
### Response y

### Prompt Give the logged outcome of this assay for the following compound: CN1/C(=C\C=C\C2=[N+](C)c3ccc4ccccc4c3C2(C)C)C(C)(C)c2ccccc21
### Response y

### Prompt Please share the test call associated with COc1ccc(C(=O)NCC(=O)N/N=C(C)\C=C\c2ccccc2)cc1OC .
### Response n

### Prompt Please indicate how the test categorized O=C(O)Cn1c(=O)c2c3c(sc2n(Cc2ccc(Cl)cc2Cl)c1=O)CCCC3 .
### Response n

### Prompt Status in this test for CCCNC(=O)Cn1c(-c2ccc(F)cc2)cc(C(=O)OCC)c1C ?
### Response n

### Prompt Record lookup: outcome of this test for O=C(COC(=O)Cc1ccsc1)Nc1ccc(Cl)cn1 ?
### Response y
